Please respond with reported Inhibition for every item in the list.
test system: HepG2; test: GSK_TCMDC: Percent inhibition of human HepG2 cell line. Test compounds present at 10uM.; type: functional
Please respond with the number in % and leave the unit unwritten.

What measured Inhibition goes with `Cc1cc(N2CCN(C)CC2)nc2ccc(NC(=O)c3cccc(N(C)C)c3)cc12` ?
9

Another compound to look at: `Cc1cccc(OCC2CCN(c3ncc(C(=O)NC4CC4)cc3Cl)CC2)c1`
0

Consider next the compound O=C(Nc1cc(F)cc(F)c1)N1CCOC(CCN2CCC(c3ccccc3)CC2)(c2ccc(Cl)c(Cl)c2)C1 (centres undefined) in the same way.
31

Next entry: `Cc1cc(N[C@@H](Cc2ccccc2)C(=O)NCc2cccs2)nc(NCCc2ccccn2)n1.O=C(O)C(F)(F)F`
0

Moving on to the next compound: `CCc1sc(N2CCN(C)CC2)nc1C(=O)NCCc1ccc(Cl)c(Cl)c1.O=C(O)C(F)(F)F`
5

Repeat with `Cc1nc(-c2ccc(-c3ccc(C(=O)Nc4ccc(I)c(OCCN5CCCC5)c4)cc3)c(C)c2)no1.Cl`
96

Then this compound: `Cc1ccc2c(=NN=Cc3cccc(F)c3)cc(C)[nH]c2c1`
34

Now the same for `Cc1ccc(Nc2nc(N)c3ccccc3n2)cc1.Cl`
9

Subsequent entry: `Cc1n[nH]c2ccc(-c3cc(OC[C@@H](N)Cc4ccccc4)cnc3-c3ccc(OCc4cccc(F)c4)cc3)cc12.O=C(O)C(F)(F)F`
97

====

test system: Plasmodium falciparum; experiment: GSK_TCMDC: Inhibition of Plasmodium falciparum Dd2 in whole red blood cells, using parasite LDH activity as an index of growth. Test compounds present at 2uM; assay type: functional
We use 90% as the dividing line for Inhibition: on or above the line is T, below is F.

Determine whether measured Inhibition meets or exceeds 90% for `CCc1ccc(C2CCN(CCCCNC(=O)c3ccc(NC(=O)c4ccc(Cl)cc4)cc3)CC2)c(OCCO)c1`
T

Same lookup for `Cc1nc(N)nc(N)c1OCc1cccc2ccccc12.Cl` , please.
F

Subsequent entry: `O=C(Nc1ccc(-c2nc3ccccc3[nH]2)cc1)c1ccc(S(=O)(=O)N2CCCCC2)cc1`
F

Please answer likewise for CCN1C(c2ccc(Cl)cc2)C(CNCc2ccccc2O)CC1(C)CO (centres undefined)
T

What do you have for `CC(C)Cn1cc2c(ccc3nc(N)nc(N)c32)n1` ?
F

Same for `O=C(O)C(F)(F)F.c1cncc(CCNCc2cccc(-c3ccc(-c4nc5ccccc5[nH]4)s3)c2)c1`
T

Next: CN(Cc1ccc(-c2ccc(C(F)(F)F)cc2)cc1)C(=O)Cn1c(CCc2cccc(F)c2F)cc(=O)c2ccc(OCC3CCCN3C)cc21.O=C(O)C(O)C(O)C(=O)O (centres undefined)
F

// next record `Fc1ccc2c(NN=Cc3ccc(Cl)cc3)ccnc2c1`
T

====

test system: Plasmodium falciparum; experiment: GSK_TCMDC: Inhibition of Plasmodium falciparum 3D7 in whole red blood cells, using parasite LDH activity as an index of growth. Test compounds present at 2uM; assay type: functional
QUANTITY NAME: Inhibition (%)
# output: bare number, implied unit %

Please give the measured Inhibition for this molecule: `CS(=O)(=O)Nc1ccc(-c2ccc3ccnc(N)c3c2)cc1.O=C(O)C(F)(F)F`
85

Now this one: `CCN(CC)CCN(Cc1ccc(-c2ccc(C(F)(F)F)cc2)cc1)C(=O)Cn1c(CCc2cccc(F)c2F)nc(=O)c2ccc(F)cc21.O=C(O)C(O)C(O)C(=O)O`
98

Now the molecule `CCOc1ccc2nc(C)cc(N/N=C/c3ccccc3[N+](=O)[O-])c2c1`
100

Note, next up: `Cc1c(CNCCCNc2nc3ccccc3[nH]2)sc(C(F)F)c1Br.Cl`
100
